Tested on: cultured human mast cells
Assay procedure: Degranulation inhibition test using cultured human mast cells (IgE cross-linking, β-Hexosaminidase release)
Assay type: cell-based
Measurement setup: Mast cell; cultured human mast cells, anti-hIgE stimulation, β-Hexosaminidase index, average; read-out: human degranulation ave. IC50
# IC50 listing for each entry below
Result type: IC50

# Compound, Result type, Value
rows = [
    ("Cc1ccnc(Nc2cccc(-c3cnc([C@H](Cc4ccccc4)NC(=O)OC(C)(C)C)s3)n2)c1 [Compound A-39]", "IC50", "> 1000 nM"),
    ("Cc1ccnc(Nc2cccc(-c3cnc(C(=O)NCCCO)s3)n2)c1 [Compound A-53]", "IC50", "100 to 1000 nM"),
    ("CC(=O)NCCCCCc1ncc(-c2cccc(Nc3cc(C)ccn3)n2)s1 [Compound A-129]", "IC50", "> 1000 nM"),
    ("CC(=O)NC(C)(C)Cc1ncc(-c2cccc(Nc3cc(C)ccn3)n2)s1 [Compound A-334]", "IC50", "< 100 nM"),
    ("CC(=O)N(C)[C@H](c1ccc(O)cc1)c1ncc(-c2cccc(Nc3cc(C)ccn3)n2)s1 [Compound A-372]", "IC50", "100 to 1000 nM"),
    ("Cc1ccnc(Nc2cccc(-c3cnc(CCNS(C)(=O)=O)s3)n2)c1 [Compound A-261]", "IC50", "100 to 1000 nM"),
    ("CNC(=O)Cc1ccnc(Nc2cccc(-c3cnc([C@@H]4CCC(=O)N4)s3)n2)c1 [Compound A-342]", "IC50", "> 1000 nM"),
    ("Cc1ccnc(Nc2cccc(-c3cnc(CN[C@H]4CC[C@H](O)CC4)s3)n2)c1 [Compound A-191]", "IC50", "100 to 1000 nM"),
    ("COc1cc(Nc2cccc(-c3sc(NC(C)=O)nc3C)n2)ncn1 [Compound A-22]", "IC50", "> 1000 nM"),
    ("COc1ccc(C[C@H](NC(C)=O)c2ncc(-c3cccc(Nc4cc(C)ccn4)n3)s2)cc1OC [Compound A-139]", "IC50", "> 1000 nM"),
    ("Cc1ccnc(Nc2cccc(-c3cnc([C@H]4CC[C@H](C(=O)N(C)C)CC4)s3)n2)c1 [Compound A-264]", "IC50", "100 to 1000 nM"),
    ("CC(=O)N[C@@H](Cc1ccccc1)c1ncc(-c2cccc(Nc3cc(C)ccn3)n2)s1 [Compound A-41]", "IC50", "> 1000 nM"),
    ("C[C@H](O)c1ncc(-c2cccc(Nc3cc(Cl)ccn3)n2)s1 [Compound A-322]", "IC50", "< 100 nM"),
    ("Cc1ccnc(Nc2cccc(-c3cnc(CNC(=O)CO)s3)n2)c1 [Compound A-201]", "IC50", "100 to 1000 nM"),
    ("CC(=O)N[C@@H](C)c1nc(N)c(-c2cccc(Nc3cc(C)ccn3)n2)s1 [Compound A-115]", "IC50", "> 1000 nM"),
    ("Cc1ccnc(Nc2cccc(-c3cnc(COC(=O)NCC4(O)CCCCC4)s3)n2)c1 [Compound A-195]", "IC50", "100 to 1000 nM"),
    ("Cc1ccnc(Nc2cccc(-c3cnc(CC(C)(C)CCO)s3)n2)c1 [Compound A-158]", "IC50", "100 to 1000 nM"),
]

The origin of these recorded values is patent US7803801B2.
